- Tested on: Capan-2 cell homogenate
- protocol summary: Prodrug hydrolysis in Capan-2 cell homogenate with the presence and the absence of selective enzyme inhibitors
- Assay type: in vitro ADME
- run parameters: Capan-2 cell homogenate with 1,10-phenanthroline; 37 °C, pH 7.4
measure name: Half Life, DPP 3 Inhibitor (min)

compound | measure name | recorded value
CC(C)C[C@H](N)C(=O)NCC(=O)OC[C@H]1O[C@@H](n2cc(F)c(=O)[nH]c2=O)C[C@@H]1O [5'-O-L-leucyl-L-glycylfloxuridine] | Half Life, DPP 3 Inhibitor | 32.2
N[C@@H](Cc1ccccc1)C(=O)OC[C@H]1O[C@@H](n2cc(F)c(=O)[nH]c2=O)C[C@@H]1O [5'-O-L-phenylalanylfloxuridine] | Half Life, DPP 3 Inhibitor | 28.9
N[C@@H](Cc1ccccc1)C(=O)NCC(=O)OC[C@H]1O[C@@H](n2cc(F)c(=O)[nH]c2=O)C[C@@H]1O [5'-O-L-phenylalanyl-L-glycyl-floxuridine] | Half Life, DPP 3 Inhibitor | 30.1
CC(C)[C@H](N)C(=O)N[C@@H](Cc1ccccc1)C(=O)OC[C@H]1O[C@@H](n2cc(F)c(=O)[nH]c2=O)C[C@@H]1O [5'-O-L-valyl-L-phenylalanyl-floxuridine] | Half Life, DPP 3 Inhibitor | 67.7
N[C@@H](Cc1ccccc1)C(=O)N[C@@H](Cc1ccc(O)cc1)C(=O)OC[C@H]1O[C@@H](n2cc(F)c(=O)[nH]c2=O)C[C@@H]1O | Half Life, DPP 3 Inhibitor | 47.2
